- Tested on: LoVo-Dox
- Experimental Protocol: SRB colorimetric assay of cell growth and viability, LoVo-Dox
- Type: cell-based, human
- Stated Conditions: 48 hours exposure; read-out: LC50 LOVO-DOX
Where a SMILES comes first, the peptide text is derived from it. Bridges are numbered along the chain shown (N, C = ends). [ ]: non-standard residue; d: D form. The star is where a group is joined. d(aIle) = CC[C@H](C)[C@@H](N)C(=O)O; d(aThr) = C[C@@H](O)[C@@H](N)C(=O)O; Hexanoyl(5-Me) = CC(C)CCCC(=O)*; Myristoyl = CCCCCCCCCCCCCC(=O)*; Orn = NCCC[C@H](N)C(=O)O; Dhb = C/C=C(\N)C(=O)O
The label True is reserved for CC50 strictly under 2 µM; False covers values equal to or above it.

| Compound | Label Value |
| --- | --- |
| C/C=C1\NC(=O)[C@H](Cc2ccccc2)NC(=O)[C@@H](C(C)C)NC(=O)[C@@H]([C@@H](C)CC)NC(=O)[C@H](NC(=O)[C@H](NC(=O)[C@H](CCCCN)NC(=O)[C@H]2CCCN2C(=O)[C@H](NC(=O)[C@@H](NC(=O)[C@@H](NC(=O)[C@H](NC(=O)CCCC(C)C)C(C)C)[C@@H](C)O)C(C)C)C(C)C)[C@@H](C)CC)[C@@H](C)OC(=O)[C@H](C(C)C)NC1=O [Compound 5, [Lys^8]-KF] | True |
| C/C=C1\NC(=O)[C@H](Cc2ccccc2)NC(=O)[C@@H](C(C)C)NC(=O)[C@@H](C(C)C)NC(=O)[C@H](NC(=O)[C@H](NC(=O)[C@H](CCCN)NC(=O)[C@H]2CCCN2C(=O)[C@H](NC(=O)[C@@H](NC(=O)[C@@H](NC(=O)[C@H](NC(=O)CCCC(C)C)C(C)C)[C@@H](C)O)C(C)C)C(C)C)C(C)C)[C@@H](C)OC(=O)[C@H](C(C)C)NC1=O [Compound 12, [D-Val^5, D-Val^7]-KF] ({Hexanoyl(5-Me)}-[dV]TV[dV][dP][Orn][dV][d(aThr)][dV][dV]F[Dhb]V; ester 8-C) | False |
| C/C=C1\NC(=O)[C@H](Cc2ccccc2)NC(=O)[C@@H](C(C)C)NC(=O)[C@@H]([C@@H](C)CC)NC(=O)[C@H](NC(=O)[C@H](NC(=O)[C@H](CCCN)NC(=O)[C@H]2CCCN2C(=O)[C@H](NC(=O)CCCCCCCCCCCCC)C(C)C)[C@@H](C)CC)[C@@H](C)OC(=O)[C@H](C(C)C)NC1=O [Compound 32] (Myristoyl-[dV][dP][Orn][d(aIle)][d(aThr)][d(aIle)][dV]F[Dhb]V; ester 5-C) | False |
| C/C=C1\NC(=O)[C@H](Cc2ccccc2)NC(=O)[C@@H](C(C)C)NC(=O)[C@@H]([C@@H](C)CC)NC(=O)[C@H](NC(=O)[C@H](NC(=O)[C@H](CCCN)NC(=O)[C@H]2CCCN2C(=O)[C@H](NC(=O)[C@@H](NC(=O)[C@@H](NC(=O)[C@H](NC(=O)CCCC(C)C)C(C)C)[C@@H](C)O)[C@@H](C)O)C(C)C)[C@@H](C)CC)[C@@H](C)OC(=O)[C@H](C(C)C)NC1=O [Compound 50, [Thr^11]-KF] ({Hexanoyl(5-Me)}-[dV]TT[dV][dP][Orn][d(aIle)][d(aThr)][d(aIle)][dV]F[Dhb]V; ester 8-C) | False |
| C/C=C1\NC(=O)[C@H](Cc2ccccc2)NC(=O)[C@@H](C(C)C)NC(=O)[C@@H]([C@@H](C)CC)NC(=O)[C@H](NC(=O)[C@H](NC(=O)[C@H](CCCN)NC(=O)[C@H]2CCCN2C(=O)[C@H](NC(=O)[C@H](CCC(=O)O)NC(=O)[C@@H](NC(=O)[C@H](NC(=O)CCCC(C)C)C(C)C)[C@@H](C)O)C(C)C)[C@@H](C)CC)[C@@H](C)OC(=O)[C@H](C(C)C)NC1=O [Compound 51, [Glu^11]-KF] ({Hexanoyl(5-Me)}-[dV]TE[dV][dP][Orn][d(aIle)][d(aThr)][d(aIle)][dV]F[Dhb]V; ester 8-C) | False |
| C/C=C1\NC(=O)[C@H](Cc2ccccc2)NC(=O)[C@@H](C(C)C)NC(=O)[C@@H]([C@@H](C)CC)NC(=O)[C@H](NC(=O)[C@H](NC(=O)[C@H](CCCN)NC(=O)[C@H]2CCCN2C(=O)[C@H](NC(=O)[C@@H](NC(=O)[C@@H](NC(=O)[C@@H](CC2CCCCC2)NC(=O)CCCC(C)C)[C@@H](C)O)C(C)C)C(C)C)[C@@H](C)CC)[C@@H](C)OC(=O)[C@H](C(C)C)NC1=O [Compound 8, [D-Cha^13]-KF] | False |
| C/C=C1\NC(=O)[C@H](Cc2ccccc2)NC(=O)[C@@H](C(C)C)NC(=O)[C@@H]([C@@H](C)CC)NC(=O)[C@H](NC(=O)[C@H](NC(=O)[C@H](CCCN)NC(=O)[C@H]2CCCN2C(=O)[C@H](NC(=O)[C@@H](NC(=O)[C@@H](NC(=O)[C@@H](CCC(N)=O)NC(=O)CCCC(C)C)[C@@H](C)O)C(C)C)C(C)C)[C@@H](C)CC)[C@@H](C)OC(=O)[C@H](C(C)C)NC1=O [Compound 40, [D-Gln^13]-KF] | False |
| C/C=C1\NC(=O)[C@H](Cc2ccccc2)NC(=O)[C@@H](C(C)C)NC(=O)[C@@H]([C@@H](C)CC)NC(=O)[C@H](NC(=O)[C@H](NC(=O)[C@H](CCCN)NC(=O)[C@H]2CCCN2C(=O)[C@H](NC(=O)[C@@H](NC(=O)[C@@H](NC(=O)[C@H](NC(=O)CCCCCCCCCC)C(C)C)[C@@H](C)O)C(C)C)C(C)C)[C@@H](C)CC)[C@@H](C)OC(=O)[C@H](C(C)C)NC1=O [Compound 15, [Und^14]-KF] | True |
| C/C=C1\NC(=O)[C@H](Cc2ccccc2)NC(=O)[C@@H](C(C)C)NC(=O)[C@@H]([C@@H](C)CC)NC(=O)[C@H](NC(=O)[C@H](NC(=O)[C@H](CCCN)NC(=O)[C@H]2CCCN2C(=O)[C@H](NC(=O)[C@@H](NC(=O)[C@@H](NC(=O)[C@H](NC(=O)CC[C@H](C)CC)C(C)C)[C@@H](C)O)C(C)C)C(C)C)[C@@H](C)CC)[C@@H](C)OC(=O)[C@H](C(C)C)NC1=O [Compound 16, [(4R)-MeHex^14]-KF] | False |

----------
- System: K-562
- Experimental Protocol: SRB colorimetric assay of cell growth and viability, K-562
- Assay type: cell-based, human
- Stated Conditions: 48 hours exposure, SRB
- Method: The finality of this assay is to interrupt the growth of a “in vitro” tumor cell culture by means a continued exhibition of the cells to the sample to be testing. […] Cells are seeded in 96 well microtiter plates, at 5×10^3 cells per well in aliquots of 195 μL medium, and they are allowed to attach to the plate surface by growing in drug free medium for 18 hours. […] Optical densities are read on a automated spectrophotometric plate reader at a single wavelength of 490 nm. […]
Where a SMILES comes first, the peptide text is derived from it. Bridges are numbered along the chain shown (N, C = ends). [ ]: non-standard residue; d: D form. The star is where a group is joined. d(aIle) = CC[C@H](C)[C@@H](N)C(=O)O; d(aThr) = C[C@@H](O)[C@@H](N)C(=O)O; Hexanoyl(5-Me) = CC(C)CCCC(=O)*; Orn = NCCC[C@H](N)C(=O)O; Dhb = C/C=C(\N)C(=O)O; Aib = CC(C)(N)C(=O)O
Measured Parameter: GI50

| Compound | Measured Parameter | Assay Result |
| --- | --- | --- |
| C/C=C1\NC(=O)[C@H](Cc2ccccc2)NC(=O)[C@@H](C(C)C)NC(=O)[C@@H]([C@@H](C)CC)NC(=O)[C@H](NC(=O)[C@H](NC(=O)[C@H](CCCN)NC(=O)[C@H]2CCCN2C(=O)[C@H](NC(=O)[C@@H](NC(=O)[C@H](CCCN)NC(=O)CCCC(C)C)C(C)C)C(C)C)[C@@H](C)CC)[C@@H](C)OC(=O)[C@H](C(C)C)NC1=O [Compound 57, [Orn^12, noD-Val^13]-KF] ({Hexanoyl(5-Me)}-[Orn]V[dV][dP][Orn][d(aIle)][d(aThr)][d(aIle)][dV]F[Dhb]V; ester 7-C) | GI50 | ≥ 7.18 µM |
| C/C=C1\NC(=O)[C@H](Cc2ccccc2)NC(=O)[C@@H](C(C)C)NC(=O)[C@@H]([C@@H](C)CC)NC(=O)[C@H](NC(=O)[C@H](NC(=O)[C@H](CCCNC(=O)C(F)(F)F)NC(=O)[C@H]2CCCN2C(=O)[C@H](NC(=O)[C@@H](NC(=O)[C@@H](NC(=O)[C@H](NC(=O)CC[C@@H](C)CC)C(C)C)[C@@H](C)OC(=O)C(F)(F)F)C(C)C)C(C)C)[C@@H](C)CC)[C@@H](C)OC(=O)[C@H](C(C)C)NC1=O [Compound 95] | GI50 | 3.57 µM |
| C/C=C1\NC(=O)[C@H](Cc2ccccc2)NC(=O)[C@@H](C(C)C)NC(=O)[C@@H]([C@@H](C)CC)NC(=O)[C@H](NC(=O)[C@H](NC(=O)[C@H](CCCN)NC(=O)[C@H]2CCCN2C(=O)[C@H](NC(=O)[C@@H](NC(=O)[C@@H](NC(=O)[C@H](NC(=O)CC[C@@H](C)CC)C(C)C)[C@@H](C)OC(=O)C(F)(F)F)C(C)C)C(C)C)[C@@H](C)CC)[C@@H](C)OC(=O)[C@H](C(C)C)NC1=O [Compound 94] | GI50 | 1.84 µM |
| C/C=C1\NC(=O)[C@H](Cc2ccccc2)N(C)C(=O)[C@@H](C(C)C)NC(=O)[C@@H]([C@@H](C)CC)NC(=O)[C@H](NC(=O)[C@H](NC(=O)[C@H](CCCN)NC(=O)[C@H]2CCCN2C(=O)[C@H](NC(=O)[C@@H](NC(=O)[C@@H](NC(=O)[C@H](NC(=O)CC[C@@H](C)CC)C(C)C)[C@@H](C)O)C(C)C)C(C)C)[C@@H](C)CC)[C@@H](C)OC(=O)[C@H](C(C)C)NC1=O [Compound 80, [NMePhe^3, (4S)-MeHex^14]-KF] | GI50 | 0.744 µM |
| C/C=C1\NC(=O)[C@H](Cc2ccccc2)NC(=O)[C@@H](C(C)C)NC(=O)[C@@H]([C@@H](C)CC)NC(=O)[C@H](NC(=O)[C@H](NC(=O)[C@H](CCCNC(=O)C(F)(F)F)NC(=O)[C@H]2CCCN2C(=O)[C@H](NC(=O)[C@@H](NC(=O)[C@@H](NC(=O)[C@H](NC(=O)CC[C@@H](C)CC)C(C)C)[C@@H](C)O)C(C)C)C(C)C)[C@@H](C)CC)[C@@H](C)OC(=O)[C@H](C(C)C)NC1=O [Compound 96] | GI50 | 4.5 µM |
| C/C=C1\NC(=O)[C@H](Cc2ccccc2)NC(=O)[C@@H](C(C)C)NC(=O)[C@@H]([C@@H](C)CC)NC(=O)[C@H](NC(=O)[C@H](NC(=O)[C@H](CCCN)NC(=O)[C@H]2CCCN2C(=O)[C@H](NC(=O)[C@@H](NC(=O)[C@@H](NC(=O)[C@H](NC(=O)CC[C@@H](C)[C@H]2CC[C@H]3[C@@H]4CC[C@@H]5C[C@H](OC(=O)C(F)(F)F)CC[C@]5(C)[C@H]4CC[C@]23C)C(C)C)[C@@H](C)OC(=O)C(F)(F)F)C(C)C)C(C)C)[C@@H](C)CC)[C@@H](C)OC(=O)[C@H](C(C)C)NC1=O [Compound 97] | GI50 | 1.28 µM |
| C/C=C1\NC(=O)[C@H](Cc2ccccc2)NC(=O)[C@@H](C(C)C)NC(=O)[C@@H]([C@@H](C)CC)NC(=O)[C@H](NC(=O)[C@H](NC(=O)[C@H](CCCN)NC(=O)[C@H]2CCCN2C(=O)[C@H](NC(=O)[C@@H](NC(=O)[C@H](CCC(N)=O)NC(=O)CCCC(C)C)C(C)C)C(C)C)[C@@H](C)CC)[C@@H](C)OC(=O)[C@H](C(C)C)NC1=O [Compound 58, [Gln^12, noD-Val^13]-KF] ({Hexanoyl(5-Me)}-QV[dV][dP][Orn][d(aIle)][d(aThr)][d(aIle)][dV]F[Dhb]V; ester 7-C) | GI50 | ≥ 7.11 µM |
| C/C=C1\NC(=O)[C@H](Cc2ccccc2)NC(=O)[C@@H](C(C)C)NC(=O)[C@@H]([C@@H](C)CC)NC(=O)[C@H](NC(=O)[C@H](NC(=O)[C@H](CCCC[N+](C)(C)C)NC(=O)[C@H]2CCCN2C(=O)[C@H](NC(=O)[C@@H](NC(=O)[C@@H](NC(=O)[C@H](NC(=O)CC[C@@H](C)CC)C(C)C)[C@@H](C)O)C(C)C)C(C)C)[C@@H](C)CC)[C@@H](C)OC(=O)[C@H](C(C)C)NC1=O [Compound 93, [N^ε(Me)3-Lys^8, (4S)-MeHex^14]-KF] | GI50 | 1.49 µM |
| CC[C@H](C)[C@@H](NC(=O)[C@H](CCCN)NC(=O)[C@H]1CCCN1C(=O)[C@H](NC(=O)[C@@H](NC(=O)[C@@H](NC(=O)[C@H](NC(=O)CCCC(C)C)C(C)C)[C@@H](C)O)C(C)C)C(C)C)C(=O)N[C@H]1C(=O)N[C@H]([C@@H](C)CC)C(=O)N[C@H](C(C)C)C(=O)N[C@@H](Cc2ccccc2)C(=O)NC(C)(C)C(=O)N[C@@H](C(C)C)C(=O)O[C@@H]1C [Compound 66, [Aib^2]-KF] ({Hexanoyl(5-Me)}-[dV]TV[dV][dP][Orn][d(aIle)][d(aThr)][d(aIle)][dV]F[Aib]V; ester 8-C) | GI50 | ≥ 6.76 µM |
